Taken from PubChem BioAssay (NCI).

- System: SR leukemia
- ASSAY: NCI-60 one-dose screen, 48 h (100 = growth as untreated, 0 = no growth, -100 = all killed)
- PARTICULARS: 10 µM unless noted
About 83,000 compounds went through this panel and 20% of them were active in at least one assay; those are over-represented in the sample as a whole.
Outcome label depends on growth relative to 20%: at/above gives 1.0, below gives 0.0.

State whether the measured growth reaches 20%, counting equality as reaching it, for `CC(=O)OCCCCN1C=C/C(=C\C(=O)n2ccc3ccccc32)c2ccccc21` 1.0

How about `CC/C(=C(/c1ccc(Cl)cc1)c1ccc(OCCN)cc1)c1ccccc1` ? 0.0

Another compound to check: `O=S(=O)(Oc1ccc(-c2cn3ccoc3n2)cc1)c1cccc(C(F)(F)F)c1` 1.0

Field entry: `O=C(CSc1nc2ccccc2c(=O)n1-c1ccccc1)N/N=C/c1ccc(Oc2ccc(Cl)cc2)cc1` 1.0

Moving on to `N#Cc1c(-c2cccs2)c(C#N)c(=O)n(Cc2nc3ccccc3[nH]2)c1N` 1.0

Same read-out for `Cc1[nH]c(C(=O)Nc2ccccc2OCc2cccc(C(=O)NCCN)c2)cc1Cl` ? 0.0

Follow-up entry: `COc1ccccc1/C=C/C(=O)c1nnn(-c2ccc(F)cc2)c1C` 0.0

What do we get for CCCCN1C(=O)/C(=c2\sc3n(c2=O)C2C(NN=3)N(CC)C(=O)N2CC)c2cccc(C)c21 (stereo not given) ? 0.0

What would you report for `CN1CCN(c2ccc(Nc3nc(NCCCNS(=O)(=O)c4ccc(F)cc4)c4sccc4n3)cc2)CC1` ? 0.0

Could you do the same for `N#Cc1c(-c2ccc(Br)cc2)cc(-c2c[nH]c3ccccc23)nc1N` , please? 1.0

`O=C(Nc1ccc(Cl)c(C(F)(F)F)c1)Nc1ccc2c(ccn2C(=O)c2cccc(F)c2)c1` , same question. 1.0

Item: `COc1ccc(NC(=O)CCCCCCNC(=O)C(O)(O)C(F)(F)F)cc1` 0.0

Repeat with `CN1CCN(c2ccc(Nc3nc(NCCCNS(=O)(=O)c4cccc5ccccc45)c4sccc4n3)cc2)CC1` 0.0

And what about the compound `CC(=O)c1c([Si](C)(C)C)c2cc(C#N)ccn2c1C(=O)c1ccc(Br)cc1` ? 1.0

Would you mind doing `CS(=O)(=O)c1ccc(/C(=N/N=C(N)N)c2ccc(Cl)cc2)cc1` as well? 1.0

Moving on to the next compound: `NNc1nnc2nc(Nc3ccccc3)nc(Nc3ccc(S(N)(=O)=O)cc3)n12` 1.0

Field entry: `O=c1c2cc(-c3ccc(F)cc3F)ccc2n(O)c(=O)n1-c1cccc(C(F)(F)F)c1` 0.0

Then this compound: `CN(C)c1ccc(-c2cc(-c3c[nH]c4ccccc34)nc(N)c2C#N)cc1` 0.0

What do we get for `COc1ccc(C(C)=C(c2ccc(OCCN3CCCCCC3)cc2)c2ccc(OCCN3CCCCCC3)cc2)cc1` ? 0.0

Now the compound `C#CCN(C)CCCOc1ccc(NCc2ccc(C(=O)NO)cc2)cc1Cl` 0.0

* * *

- Tested on: KM12 colon
- ASSAY: NCI-60 one-dose screen, 48 h
- PARTICULARS: 10 µM unless noted
- Experimental: Growth inhibition of the KM12 human tumor cell line is measured as a screen for anti-cancer activity. Cells are grown in 96 well plates and exposed to the test compound for 48 hours. Compounds are tested at a single concentration, which is 10^-5 M for most compounds. The reported endpoint is percent growth (GI% or GIPRCNT), where numbers from 0 - 100% represent growth inhibition, and numbers from -100% - 0 represent cell death. For example, a value of 40 represents 60% growth inhibition. […]
Compounds without any hit were thinned out: in the full panel of roughly 83,000, 20% have a hit. Active and inactive are the calls of the source. Rule for the calls: active = growth percent below 10; inactive = the rest.
Your answer must be one of the following: yes (1) = active, no (0) = inactive

Hey, what did the test say about CCOP(=O)(OCC)OC[C@]12CCC(C)(C)CC1C1=CC[C@@H]3[C@@]4(C)CCCNC(C)(C)[C@@H]4CC[C@@]3(C)[C@]1(C)CC2 (some centres not stated) ? no (0)

Then this compound: `O=C(CSc1nc2ccccc2c(=O)n1-c1ccc(S(=O)(=O)Nc2ccc(Cl)nn2)cc1)Nc1ccc(S(=O)(=O)Nc2ccc(Cl)nn2)cc1` no (0)

Follow-up entry: `O=C1Nc2ccccc2/C1=C/c1ccc(OCC(=O)c2ccccc2)cc1` no (0)

Now consider `CN1CCN(c2ccc(Nc3nc(NCCCNS(=O)(=O)c4ccccc4)c4sccc4n3)cc2)CC1` . no (0)

Try the compound `O=C1Nc2cc(Cl)ccc2/C1=C\c1ccc(OCc2ccccc2)cc1` no (0)

Try this compound too: `COc1ccc(-c2c3c(cn2Cc2cccc(OC)c2)-c2oncc2CCC3)cc1` no (0)

And then `NC1=NC2(CCCC2)N(c2ccc(S(=O)(=O)Nc3nccs3)cc2)C(N)=N1` , what is it? no (0)

Next compound: `C#CCn1cc(/C=N/Nc2nc(-c3ccc(Br)cc3)cs2)c2ccccc21` no (0)

What do you get for `CN1CCN(Cc2ccc(NC(=O)c3cncc(C#Cc4cnc5ccc(NCCO)nn45)c3)cc2C(F)(F)F)CC1` ? yes (1)

How about CCS(=O)(=O)Nc1ccc(C(=O)CC2(O)C(=O)Nc3ccccc32)cc1 (configuration not stated) ? no (0)

Then what about the compound `O=C1C(SCc2ccccc2)=C(Cl)CN1c1ccccc1` ? no (0)

Same question for CC[C@]12C=CCN3CC[C@]4(C(=C(C(=O)OC)C1)Nc1cc5c(cc14)[C@@H]1[C@H](O5)[C@@H](O)[C@@]4(CC)CC(C(=O)OC)=C5Nc6cc(O)ccc6[C@@]56CCN1C46)C32 (some centres not stated) please. yes (1)

`C=C(C)[C@@H]1CC[C@]2(COCCCNCCCN)CC[C@]3(C)[C@H](CC[C@@H]4[C@@]5(C)CC[C@H](O)C(C)(C)[C@@H]5CC[C@]43C)[C@@H]12` ? yes (1)

Field entry: CC(Nc1ncnc2ccc(-c3cnc4cnccn34)cc12)c1ccccc1 (configuration not stated) no (0)

Input `CCN(CC)CCOc1ccc(C(=C(C)c2ccc(OC)cc2)c2ccc(OCCN(CC)CC)cc2)cc1` no (0)

Likewise for `O=C(/C=C/c1cccc(F)c1)c1cccc(OCCCCOc2cccc(C(=O)/C=C/c3cccc(F)c3)c2)c1` ? no (0)

How about this compound: CC(Nc1c(C#N)cnc2ccc(-c3cncc(-c4n[nH]c(=O)o4)c3)cc12)c1ccccc1 (configuration not stated) no (0)
